The following compounds are listed with their measured composite z-score values.
System: PRMT1 (protein arginine N-methyltransferase 1)
Test method notes: small molecules binding arginine methyltransferase PRMT1 – biochemical, small-molecule microarray, 635 nm fluorescence, primary screen (AID 1088);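 also: binding of Prmt1 protein to compounds spotted on small-molecule microarray slides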
Cond: higher = more signal
// no unit, no text: just the number

Worked examples follow.
Compound	Property measured	Recorded result
C=CCC(OC(C)=O)[C@@H]1[C@@H](N(Cc2cc3ccccc3o2)C(=O)Cc2ccc(OC)cc2)c2cc(OCCCO)ccc2N1C(=O)c1ccc(-c2ccccc2)cc1 (stereo not given in full)	composite z-score	-0.427
CC[C@@H]1[C@@H]2C3C(=O)N(CC)C(=O)C3CC(=O)[C@@H]2[C@H](c2ccc(C)cc2)N1S(=O)(=O)c1ccc(C)cc1 (stereo not given in full)	composite z-score	1.29
COCCOC(=O)N1C(=O)[C@@]2(c3cc(C#CCCO)ccc31)[C@H](C(=O)NC[C@H](O)c1ccccc1)[C@H]1C(=O)O[C@H](c3ccccc3)[C@H](c3ccccc3)N1[C@@H]2c1ccccc1OCCO	composite z-score	1.53
COCCOC(=O)N1C(=O)[C@@]2(c3cc(C#Cc4ccc(OC)cc4)ccc31)[C@H](C(=O)N1CCc3cc(OC)c(OC)cc3C1)[C@H]1C(=O)O[C@H](c3ccccc3)[C@H](c3ccccc3)N1[C@@H]2c1ccc(OCCO)cc1	composite z-score	1.33

We next turn to a different compound, shown below.
Query block: Item under review: "CC(C)(C)OC(=O)CC[C@@]1(C(=O)N2CCCCC2)N=C(c2ccc(OCCCO)cc2)O[C@@H]1c1ccccc1N=[N+]=[N-]" . Reported composite z-score?
Result block: 1.53

###

Test method notes: JC-1 mitochondrial signal, unstimulated HepG2 cells – cell-based, JC-1 fluorescence, 24 h, 100 nL compound, profiling panel (AID 1167); also: test concentration not given here
Cond: HepG2 mitochondrial potential, higher = more signal
Property measured: z-score
Write the number on its own, no unit after it.

Molecule	Recorded result
COCCOC(=O)N1C(=O)[C@@]2(c3cc(C#CCCO)ccc31)[C@H](C(=O)N1CCc3cc(OC)c(OC)cc3C1)[C@H]1C(=O)O[C@H](c3ccccc3)[C@H](c3ccccc3)N1[C@@H]2c1ccc(OCCO)cc1	-0.495

Query block: Could you tell me which z-score is on file for "O=c1c2ccc(Br)cc2nc(-c2ccccc2)n1Cc1cccc(O)c1" ?
Result block: -0.0225

Query block: // lookup z-score for "COCCOC(=O)N1C(=O)[C@@]2(c3cc(C#CCC(C(=O)OC)C(=O)OC)ccc31)[C@H](c1ccc(OCCO)cc1)N1[C@H](c3ccccc3)[C@H](c3ccccc3)OC(=O)[C@H]1[C@@H]2C(N)=O"
Result block: -0.0777

###

Test method notes: COS7 lysate on small-molecule microarray, probe aHis, 635 nm (AID 1123);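 also: z-score combines 667nm fluorescence intensity with signal-to-noise per printed compound spot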
Cond: COS7 cell lysate, fluorescence, higher = more signal
Class 1: composite z-score at least 2. Class -1: composite z-score below 2.

Recorded results for 6 compounds are shown here.
Compound	Assigned class
C=C(COC)C(=O)CC[C@H](OC(=O)c1ccccc1-c1ccccc1C(=O)O)c1ccc(OCCO)cc1	-1
CCCN1C(=O)[C@@H]2Cc3c([nH]c4ccccc34)[C@@H](c3cccc(O)c3)N2C1=O	-1
COC(=O)[C@@]1(Cc2ccccc2)[C@H]2c3cc(C(=O)N(C)C)n(Cc4ccc(O)c(OC)c4)c3C[C@H]2CN1C(=O)c1ccccc1	1
COC(=O)[C@@]1(Cc2ccccc2)[C@H]2c3cc(C(=O)N(C)C)n(Cc4ccccn4)c3C[C@H]2CN1C(=O)c1ccccc1	1
COc1ccc([Si](C)(C)[C@H]2[C@H](CC(=O)N3CCC[C@H]3CO)O[C@@]3(C(=O)N(Cc4ccc(N5C(=O)c6cccc7cccc5c67)cc4)c4ccccc43)[C@@H]2C)cc1	-1
C[N+](C)(C)CCCCCCNC(=O)[C@@H]1C[C@@H]2C(=O)NCC(=O)N2[C@@H]1c1ccc(O)cc1	-1

Query block: For this compound, is measured composite z-score 2 or higher? CC(C)c1ccc(NN2C(C(O)c3cccs3)C=CC3C(=O)N(c4ccccc4)C(=O)C32)cc1 (centres undefined)
Result block: 1

Query block: API: above_or_equal(metric=composite z-score, cutoff=2) for item "CC(C)CNC(=O)[C@@]1(C)c2ccccc2C(=O)N(Cc2ccccc2)[C@H]1c1ccc(CO)cc1"
Result block: -1
